target: PGL-3 condensates (Caenorhabditis elegans, UniProt G5EBV6); experiment: Fluorescence imaging of dye partitioning in PGL-3 condensates (I-in, I-out); type: physicochemical; conditions: outside PGL-3 condensate; 10 μM dye, 5 μM protein; image 1; one day of experiments
parameter-measured: Intensity Outside with Dye 1

Use these answered entries as a reference point.
1) CC(=O)N[C@H]1[C@H](Oc2ccc3c(c2)Oc2cc(O)ccc2C32OC(=O)c3ccccc32)O[C@H](CO)[C@H](O)[C@@H]1O (stereo partly drawn) | 1439.0
2) N#CC1=c2cc3c4c(c2Oc2c1cc1c5c2CCCN5CCC1)CCC[N+]=4CCC3 | 301.3
3) O=C(CCCC[C@@H]1SCC2NC(=O)NC21)NCCNC(=O)c1ccc(-c2c3ccc(=O)cc-3oc3ccc(O)cc23)c(C(=O)O)c1 (stereo partly drawn) | 2781.8
4) O=C1OC2(c3ccc(O[C@@H]4O[C@H](CO)[C@H](O)[C@H](O)[C@H]4O)cc3Oc3cc(O[C@@H]4O[C@H](CO)[C@H](O)[C@H](O)[C@H]4O)ccc32)c2ccccc21 [Dye 12, Fluorescein di(β-D-galacto-pyranoside)] | 208.4

I = CC(=O)c1cc2cc3c4c(c2oc1=O)CCCN4CCC3
II = COC(=O)c1ccccc1-c1c2ccc(=N)cc-2oc2cc(N)ccc12.Cl
Query: Given the two records I and II , choose the one whose Intensity Outside with Dye 1 value is lower. Identify your pick by its label.
Reply: I

* * *

Molecular target: PGL-3 condensates (Caenorhabditis elegans)
Sequence (G5EBV6 1-693): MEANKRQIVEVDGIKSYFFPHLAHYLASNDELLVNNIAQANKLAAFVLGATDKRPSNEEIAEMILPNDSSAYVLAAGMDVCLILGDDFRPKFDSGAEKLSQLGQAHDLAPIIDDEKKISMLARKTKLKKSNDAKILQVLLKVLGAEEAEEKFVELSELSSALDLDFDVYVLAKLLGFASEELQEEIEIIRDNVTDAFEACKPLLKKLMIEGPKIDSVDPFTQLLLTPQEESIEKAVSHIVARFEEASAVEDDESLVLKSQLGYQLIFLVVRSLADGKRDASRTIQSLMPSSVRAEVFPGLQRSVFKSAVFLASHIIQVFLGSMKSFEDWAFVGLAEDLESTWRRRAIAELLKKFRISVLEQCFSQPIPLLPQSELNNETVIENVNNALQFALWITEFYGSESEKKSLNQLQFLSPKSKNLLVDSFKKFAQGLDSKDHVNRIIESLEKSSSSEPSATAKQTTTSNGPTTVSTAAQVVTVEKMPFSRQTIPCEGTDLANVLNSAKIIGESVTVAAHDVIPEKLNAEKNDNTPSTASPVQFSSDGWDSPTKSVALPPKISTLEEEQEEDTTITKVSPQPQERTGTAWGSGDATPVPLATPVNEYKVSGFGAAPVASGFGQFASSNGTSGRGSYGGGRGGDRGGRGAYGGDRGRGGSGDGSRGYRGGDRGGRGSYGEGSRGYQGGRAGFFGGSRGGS
Assay: Fluorescence imaging of dye partitioning in PGL-3 condensates (I-in, I-out)
Type: physicochemical
Settings: outside PGL-3 condensate; 10 μM dye, 5 μM protein; image 3; one day of experiments
parameter-measured: Intensity Outside with Dye 3

Use these answered entries as a reference point.
1) N=C(N)c1ccc(-c2cc3ccc(C(=N)N)cc3[nH]2)cc1 | 164.9
2) O=C1OC2(c3ccc(O)cc3Oc3cc(O)ccc32)c2ccccc21 | 3912.1
3) CC/N=c1/cc2oc3cc(NCC)c(C)cc3c(-c3ccccc3C(=O)NCCOCCOCCN)c-2cc1C.O=C(O)C(F)(F)F | 1236.3
4) COC(=O)c1ccccc1-c1c2ccc(=N)cc-2oc2cc(N)ccc12.Cl | 2545.0
5) N#CC1=c2cc3c4c(c2Oc2c1cc1c5c2CCCN5CCC1)CCC[N+]=4CCC3 | 332.2
6) CC(=O)Oc1ccc2c(c1)Oc1cc(OC(C)=O)ccc1C21OC(=O)c2ccccc21 [Dye 9, Fluorescein diacetate] | 273.2

a = O=C(CCCC[C@@H]1SCC2NC(=O)NC21)NCCNC(=O)c1ccc(-c2c3ccc(=O)cc-3oc3ccc(O)cc23)c(C(=O)O)c1 (some centres unmarked)
b = CC(=O)c1cc2cc3c4c(c2oc1=O)CCCN4CCC3
Query: Given the two records a and b , choose the one whose Intensity Outside with Dye 3 value is lower. Identify your pick by its label.
Reply: b

* * *

molecular target: UniProtKB P35637; experiment: Fluorescence imaging of dye partitioning in FUS-SNAP condensates (I-in, I-out); type: physicochemical; conditions: inside FUS-SNAP condensate; background corrected; one day of experiments
parameter-measured: Intensity Inside Dye-No Dye

Use these answered entries as a reference point.
1. CC/N=c1/cc2oc3cc(NCC)c(C)cc3c(-c3ccccc3C(=O)NCCOCCOCCN)c-2cc1C.O=C(O)C(F)(F)F | −732.6
2. O=C1OC2(c3ccc(O)cc3Oc3cc(O)ccc32)c2ccccc21 | 6141.9
3. COC(=O)c1ccccc1-c1c2ccc(=N)cc-2oc2cc(N)ccc12.Cl | 2835.2

I = O=C(O)c1cc2cc3c4c(c2oc1=O)CCCN4CCC3
II = N=C(N)c1ccc(-c2cc3ccc(C(=N)N)cc3[nH]2)cc1
Query: Given the two records I and II , choose the one whose Intensity Inside Dye-No Dye value is lower. Identify your pick by its label.
Reply: II
(II: 502.4, I: 3452.8)

* * *

Biological target: FUS-SNAP condensates (Homo sapiens, UniProt P35637)
Sequence (P35637 1-526): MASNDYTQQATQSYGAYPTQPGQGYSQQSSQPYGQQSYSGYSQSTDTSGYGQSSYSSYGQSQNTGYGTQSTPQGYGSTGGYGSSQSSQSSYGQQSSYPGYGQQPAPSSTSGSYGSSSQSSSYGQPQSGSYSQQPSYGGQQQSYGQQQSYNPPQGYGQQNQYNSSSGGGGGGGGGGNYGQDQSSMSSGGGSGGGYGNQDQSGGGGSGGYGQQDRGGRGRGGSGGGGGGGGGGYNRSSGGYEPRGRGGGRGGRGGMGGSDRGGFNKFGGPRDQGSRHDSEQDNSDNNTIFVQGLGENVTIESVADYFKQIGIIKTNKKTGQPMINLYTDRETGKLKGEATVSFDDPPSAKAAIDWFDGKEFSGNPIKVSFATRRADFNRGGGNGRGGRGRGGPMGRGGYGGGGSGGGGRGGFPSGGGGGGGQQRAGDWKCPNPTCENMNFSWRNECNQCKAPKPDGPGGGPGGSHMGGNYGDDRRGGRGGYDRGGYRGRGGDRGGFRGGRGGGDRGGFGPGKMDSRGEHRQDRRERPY
Experiment: Fluorescence imaging of dye partitioning in FUS-SNAP condensates (I-in, I-out)
Format: physicochemical
Settings: outside FUS-SNAP condensate; 10 μM dye, 5 μM protein; image 2; one day of experiments
parameter-measured: Intensity Outside with Dye 2

Use these answered entries as a reference point.
1. N#CC1=c2cc3c4c(c2Oc2c1cc1c5c2CCCN5CCC1)CCC[N+]=4CCC3 | 1988.2
2. CC(=O)N[C@H]1[C@H](Oc2ccc3c(c2)Oc2cc(O)ccc2C32OC(=O)c3ccccc32)O[C@H](CO)[C@H](O)[C@@H]1O (stereo partly shown) | 1306.9
3. O=C1OC2(c3ccc(O)cc3Oc3cc(O)ccc32)c2ccccc21 | 3840.2
4. O=C(CCCC[C@@H]1SCC2NC(=O)NC21)NCCNC(=O)c1ccc(-c2c3ccc(=O)cc-3oc3ccc(O)cc23)c(C(=O)O)c1 (stereo partly shown) | 2244.6
5. O=C(O)c1cc2cc3c4c(c2oc1=O)CCCN4CCC3 | 1529.0

1 = CC/N=c1/cc2oc3cc(NCC)c(C)cc3c(-c3ccccc3C(=O)NCCOCCOCCN)c-2cc1C.O=C(O)C(F)(F)F
2 = CC(=O)Oc1ccc2c(c1)Oc1cc(OC(C)=O)ccc1C21OC(=O)c2ccccc21 [Dye 9, Fluorescein diacetate]
Query: Determine, for 1 and 2 , which has the greater value of Intensity Outside with Dye 2. Identify your pick by its label.
Reply: 2
(2: 1414.8, 1: 527.6)

* * *

tested on: FUS-SNAP condensates versus PGL-3 condensates; assay: Condensate preference: ratio of FUS-SNAP I-in:I-out to PGL-3 I-in:I-out; format: physicochemical; settings: average FUS-SNAP I-in:I-out divided by average PGL-3 I-in:I-out
Counter-ions that a name gives are not always drawn.
parameter-measured: Ratio of FUS-SNAP:PGL-3

a = CC(=O)N[C@H]1[C@H](Oc2ccc3c(c2)Oc2cc(O)ccc2C32OC(=O)c3ccccc32)O[C@H](CO)[C@H](O)[C@@H]1O (some centres unmarked)
b = O=C([O-])c1ccccc1C1=c2cc3c4c(c2Oc2c1cc1c5c2CCCN5CCC1)CCC[N+]=4CCC3 [Dye 17, Rhodamine 101 inner salt]
Query: Determine, for a and b , which has the greater value of Ratio of FUS-SNAP:PGL-3. Identify your pick by its label.
Reply: b
(b: 3.2, a: 1.3)

P = O=c1cc(C(F)(F)F)c2ccc(O)cc2o1 [Dye 2, 7-Hydroxy-4-(trifluoromethyl)-coumarin]
Q = CC(=O)c1cc2cc3c4c(c2oc1=O)CCCN4CCC3
R = N#CC1=c2cc3c4c(c2Oc2c1cc1c5c2CCCN5CCC1)CCC[N+]=4CCC3
Query: # ascending order, key=Ratio of FUS-SNAP:PGL-3 Response field: labels, in requested order.
Reply: P, Q, R
(P: 1.2, Q: 1.9, R: 3.2)
